Biological target: T1, EGFR-L858R (Homo sapiens, UniProt P00533, L858R)
T1 construct: with the advantage of testing full-length integral membrane proteins; (GGGGS)2 linker-Cub (human ubiquitin aa 35-76)-GAL4(1-147)-mNFkB(364-550) (C); expressed in transfected cells
Experiment: MaMTH EGFR-interactor screen, lentiviral preys against EGFR-L858R bait (interaction score)
Format: cell-based
Settings: MaMTH interaction score of prey with EGFR-L858R bait
Protocol: After lentivirus harvest, target cells (stable 5×GAL4UAS-luciferase reporter-HEK293T cells) were infected at a multiplicity of infection (MOI) of around 0.3-0.4 to ensure single copy integration per cell. […] To calculate a MaMTH-interaction scores, negative controls were averaged and the fold-change of luciferase activity compared to the averaged controls was calculated and defined as the interaction score. […]
Reported EGFR-L858R mean values are given for each entry in this list.

As a guide, the following entries are already answered.
// lookup EGFR-L858R mean for SLA (protein, UniProt Q13239 2-276, looked up) Src-like-adapter: GNSMKSTPAPAERPLPNPEGLDSDFLAVLSDYPSPDISPPIFRRGEKLRVISDEGGWWKAISLSTGRESYIPGICVARVYHGWLFEGLGRDKAEELLQLPDTKVGSFMIRESETKKGFYSLSVRHRQVKHYRIFRLPNNWYYISPRLTFQCLEDLVNHYSEVADGLCCVLTTPCLTQSTAAPAVRASSSPVTLRQKTVDWRRVSRLQEDPEGTENPLGVDESLFSYGLRESIASYLSLTSEDNTSFDRKKKSISLMYGGSKRKSSFFSSPPYFED
1.16

// lookup EGFR-L858R mean for CAV1 (protein, UniProt Q03135 2-178, looked up) Caveolin-1: SGGKYVDSEGHLYTVPIREQGNIYKPNNKAMADELSEKQVYDAHTKEIDLVNRDPKHLNDDVVKIDFEDVIAEPEGTHSFDGIWKASFTTFTVTKYWFYRLLSALFGIPMALIWGIYFAILSFLHIWAVVPCIKSFLIEIQCISRVYSIYVHTVCDPLFEAVGKIFSNVRINLQKEI
2.14

Then there is this molecule:
// lookup EGFR-L858R mean for SH3GL3 (protein, UniProt Q99963 1-347, looked up) Endophilin-A3: MSVAGLKKQFHKASQLFSEKISGAEGTKLDDEFLDMERKIDVTNKVVAEILSKTTEYLQPNPAYRAKLGMLNTVSKIRGQVKTTGYPQTEGLLGDCMLKYGKELGEDSTFGNALIEVGESMKLMAEVKDSLDINVKQTFIDPLQLLQDKDLKEIGHHLKKLEGRRLDYDYKKKRVGKIPDEEVRQAVEKFEESKELAERSMFNFLENDVEQVSQLAVFIEAALDYHRQSTEILQELQSKLQMRISAASSVPRREYKPRPVKRSSSELNGVSTTSVVKTTGSNIPMDQPCCRGLYDFEPENQGELGFKEGDIITLTNQIDENWYEGMIHGESGFFPINYVEVIVPLPQ
3.26
